These entries and their values trace back to patent US4229584A.

# Test system: whole complement
# EXPERIMENT: In vivo complement inhibition in guinea pigs (whole complement of serum, capillary tube assay)
# Parameters: species or system guinea pig
# MEASUREMENT SETUP: Cavia porcellus, ip, 2 h; intraperitoneal, 200 mg/kg, 120 mins.; read-out: In Vivo Activity (Guinea Pig) % Inhibition Intraperitoneal 120 mins.
RECORDED METRIC: change in vivo at 200 mg/kg (%)

{"columns": ["RECORD SMILES", "MEASUREMENT UNIT", "VALUE"],
 "data": [
  ["O=C(Nc1ccc(C(=O)Nc2cc(S(=O)(=O)O)cc3cc(S(=O)(=O)O)cc(O)c23)c(S(=O)(=O)O)c1)Nc1ccc(C(=O)Nc2cc(S(=O)(=O)O)cc3cc(S(=O)(=O)O)cc(O)c23)c(S(=O)(=O)O)c1", "%", -74],
  ["O=C(Nc1ccc(C(=O)Nc2cc(S(=O)(=O)O)cc3cc(S(=O)(=O)O)cc(S(=O)(=O)O)c23)c(S(=O)(=O)O)c1)Nc1ccc(C(=O)Nc2cc(S(=O)(=O)O)cc3cc(S(=O)(=O)O)cc(S(=O)(=O)O)c23)c(S(=O)(=O)O)c1", "%", -8],
  ["COC(=O)c1cc(NC(=O)Nc2cc(C(=O)Nc3ccc(S(=O)(=O)O)c4cc(S(=O)(=O)O)cc(S(=O)(=O)O)c34)cc(C(=O)OC)c2)cc(C(=O)Nc2ccc(S(=O)(=O)O)c3cc(S(=O)(=O)O)cc(S(=O)(=O)O)c23)c1", "%", -25]
]}
